assay: viability of PTEN-null HCT116 cells – cell-based, HCT116 clonal line, CellTiter-Glo, pilot screen (AID 824); conditions: HCT116 PTEN-deleted viability, 60 h, at 10 µM, active compounds read low;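 further: 0% = 20 µM Hyamine control and 100% = vehicle cell control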
Inconclusive results are not listed.
MEASURED PROPERTY: viability (%)
Quick note: give the figure in %, leave out the unit.

{"MOLECULE": "COc1ccccc1NC(=O)CSc1ncn[nH]1", "MEASUREMENT UNITS": "%", "OBSERVED": 101}
{"MOLECULE": "C=CCn1c(SCC(=O)N2CCN(c3ccc(F)cc3)CC2)nnc1-c1ccco1", "MEASUREMENT UNITS": "%", "OBSERVED": 73.1}
{"MOLECULE": "CS(=O)(=O)c1ccc2nc(NC(=O)Cc3ccccc3)sc2c1", "MEASUREMENT UNITS": "%", "OBSERVED": 96.3}
{"MOLECULE": "CC1=C(C(N)=O)C(c2cccc(O)c2)n2nc(CCCO)nc2N1 (stereo unspecified)", "MEASUREMENT UNITS": "%", "OBSERVED": 104}

Now for another entry.
Reported viability of COc1ccc(NC(=O)C(c2ccc(C)cc2)N(C)C(=O)c2cnccn2)cc1 (stereo unspecified) : 95.6

----------
assay: RAM pathway blockade in budding yeast – dse1pr::URA3 reporter, 5-FOA selection, pilot screen (AID 869);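 further: 0% = DMSO wells with no growth and 100% = 10 µM 1-NA-PP1 with full growth; RAM network block rescues cells from 5-FOA so hits raise OD615 growth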; details: S. cerevisiae dse1pr::URA3 5-FOA growth, OD615, 2 d; at 10 µM; active compounds read high; strain carries analog-sensitive mutant Cbk1 kinase
Activity calls are given as the source filed them.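 Rule for the calls: active = inhibition over a set limit, the all-compound mean plus 3 SD, in both replicate runs; inconclusive = over that limit in just one replicate run; inactive = at or under that limit in both runs.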
MEASURED PROPERTY: inhibition

{"COMPOUND": "Cc1cccc(OCC(=O)Nc2ccc(N3CCCC3)cc2)c1C", "inhibition": "2.95% (inactive)"}
{"COMPOUND": "COC(=O)C1=CNC=C(C(=O)OC)C1c1ccc(C(=O)OC)cc1", "inhibition": "0.165% (inactive)"}
{"COMPOUND": "O=C(O)c1ccc(NS(=O)(=O)c2cc(Cl)ccc2Cl)cc1", "inhibition": "1.72% (inactive)"}
{"COMPOUND": "COc1ccccc1C(=O)NC(C)c1nc2ccccc2[nH]1 (stereo unspecified)", "inhibition": "3.37% (inactive)"}
{"COMPOUND": "O=C(CSc1ncnc2nc[nH]c12)c1ccc(Cl)cc1", "inhibition": "1.29% (inactive)"}

Reported inhibition of `Cn1c(Cc2ccccc2)nnc1SCC(=O)NC1CCCCC1` : 1.4% (inactive)

Reported inhibition of `FC(F)(F)COc1nc(N2CCCCC2)nc(N2CCNCC2)n1` : 0.78% (inactive)

Reported inhibition of `CC(=O)c1c(OC(=O)c2ccco2)c2ccccc2n1C` : 0.15% (inactive)

Reported inhibition of `COc1ccccc1NC(=O)CSc1ncn[nH]1` : -0.045% (inactive)

----------
assay: doxorubicin toxicity protection in MRP-1 cells – H69AR cells, CellTiter-Glo, duplicate, MRP-1 activator project, pilot screen (AID 807); conditions: H69AR viability with doxorubicin, CellTiter-Glo luminescence; at 10 µM; active compounds read high;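 further: compound pretreatment 18-22 h then 72 h combined with doxorubicin; 0% = doxorubicin alone and 100% = vehicle without doxorubicin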
Here, each record is paired with measured viability increase data.
Quick note: give the figure in %, leave out the unit.

Take a look at these entries with their results.
{"MOLECULE": "Cc1ccc(OC(=O)CCC(=O)N2CCc3ccccc32)cc1", "viability increase / %": -3.7}
{"MOLECULE": "N#CCc1nc2n(n1)Cc1ccccc1-2", "viability increase / %": 0.02}
{"MOLECULE": "COc1cc(C(=O)N2CCN(c3cc(Cl)ccc3Cl)CC2)cc(OC)c1OC", "viability increase / %": -6.62}
{"MOLECULE": "COCCCN1C(=O)C(=O)/C(=C(/O)c2ccc(OCC(C)C)cc2C)C1c1cccnc1 (configuration not stated)", "viability increase / %": 0.13}
{"MOLECULE": "N#C/C(C(=O)c1ccccc1)=C1/CCCN1", "viability increase / %": 2.34}

Now for another entry.
Reported viability increase of `Cc1cc(C)cc(N(CC(=O)Nc2cccc(C)n2)S(=O)(=O)c2c(C)noc2C)c1` : -4.06

The origin of these recorded values is PubChem BioAssay.
